- Test System: FGFR2 V564F (Homo sapiens (Human), UniProt P21802, V564F)
- Sequence (P21802 481-770 V564F): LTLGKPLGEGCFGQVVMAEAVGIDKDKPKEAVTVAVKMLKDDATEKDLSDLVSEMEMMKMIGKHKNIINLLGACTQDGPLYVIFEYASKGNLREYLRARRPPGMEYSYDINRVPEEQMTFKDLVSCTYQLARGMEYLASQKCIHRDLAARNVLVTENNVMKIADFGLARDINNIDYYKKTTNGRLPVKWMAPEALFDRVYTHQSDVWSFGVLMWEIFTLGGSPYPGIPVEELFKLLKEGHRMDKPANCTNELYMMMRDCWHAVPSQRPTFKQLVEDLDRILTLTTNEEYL
- Protocol Summary: TR-FRET kinase inhibition assay, FGFR2 V564F
- Condition: ATP Km concentration (20 μM)
Observation Type: IC50 (nM)

| Molecule | Test Value |
| --- | --- |
| C=CC(=O)N1CC[C@H](n2nc(C#Cc3ccc4c(c3)ncn4C)c3c(N)ncc(C(=O)C4CC4)c32)C1 [Example 65] | 0.5 |
| C=CC(=O)N1CC[C@H](n2nc(C#Cc3ccc4c(c3)ncn4C3CC3)c3c(N)ncc(-c4ccn(C)n4)c32)C1 [Example 42] | 3.9 |
| C=CC(=O)N1CC[C@H](n2nc(C#Cc3cc4ncn(C5CC5)c4cc3F)c3c(N)ncc(C(=O)C(C)C)c32)C1 [Example 50] | 1 |
| C=CC(=O)N1CC[C@H](n2nc(C#Cc3cc4ncn(CC)c4cc3F)c3c(N)ncc(-c4cscn4)c32)C1 [Example 62] | 1.2 |
| [2H]C([2H])([2H])n1cnc2cc(C#Cc3nn([C@H]4CCN(C(=O)C=C)C4)c4c(-c5nccs5)cnc(N)c34)c(F)cc21 [Example 25] | 0.6 |
| C=CC(=O)N1CC[C@H](n2nc(C#Cc3cc4ncn(C5CC5)c4cc3Cl)c3c(N)ncc(C(=O)C4CC4)c32)C1 [Example 46] | 1.1 |

[A] C=CC(=O)N1CC[C@H](n2nc(C#Cc3cc4ncn(C)c4cc3F)c3c(N)ncc(-c4nccs4)c32)C1 [Example 9]
[B] C=CC(=O)N1CC[C@H](n2nc(C#Cc3cc4ncn(C)c4cc3F)c3c(N)ncc(C4CC4)c32)C1 [Example 20]
Request: Among A and B , which shows a numerically higher IC50 result? Let me know the label of the one you choose.
Result: B
(B: 2.8 nM, A: 1 nM)

[I] C=CC(=O)N1CC[C@H](n2nc(C#Cc3ccc4cn(CC)nc4c3)c3c(N)ncc(C(C)=O)c32)C1 [Example 85]
[II] C=CC(=O)N1CC[C@H](n2nc(C#Cc3cc4ncn(C)c4cc3Cl)c3c(N)ncc(C(=O)C4CC4)c32)C1 [Example 68]
[III] C=CC(=O)N1CC[C@H](n2nc(C#Cc3cc4ncn(C5CC5)c4cc3F)c3c(N)ncc(C(=O)CC)c32)C1 [Example 48]
[IV] C=CC(=O)N1CC[C@H](n2nc(C#Cc3ccc4csnc4c3)c3c(N)ncc(C(=O)CC)c32)C1 [Example 90]
[V] C=CC(=O)N1CC[C@H](n2nc(C#Cc3ccc4c(c3)nc(C)n4C3CC3)c3c(N)ncc(C(C)=O)c32)C1 [Example 53]
Request: Order the records so the highest IC50 appears first and the lowest last. Rank them, then answer with their labels in that order.
Result: IV, V, III, I, II
